B1: EPB41L3 (parent)
chain: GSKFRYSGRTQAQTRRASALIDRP

- Variants of: B1
- testName: protein stability index of a GFP-peptide fusion (GPS, HEK-293T) (PSI 1-6); higher = more stable;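 note: lentivirally expressed fusions sorted by FACS into six bins by GFP to DsRed ratio, PSI derived from sequencing read proportions per bin multiplied by bin number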
- particulars: c terminus: a fixed tail appended
The label depends only on protein stability index: met if it is at least 3, not met if it is smaller.

> print(dat)
   variantcode    class
1         D22M  not met

Could you verify whether the entry R15C shows protein stability index of no less than 3?
not met

Given S18H , state whether its protein stability index is at least 3.
met

Determine whether measured protein stability index meets or exceeds 3 for Q11W
not met

Hi team, for R16C , is the recorded protein stability index at or above 3?
not met

protein stability index >= 3 for S7V ?
not met
